# EXPERIMENTAL_SYSTEM: T1, hRET.mmh (human, UniProt P07949 29-635, biotinylated in the ELISA of Example 4 (biot-hRET.mmh); not in the SPR of Example 3)
# T1 construct: also called biot-hRET.mmh; soluble monomeric human RET
# MEASUREMENT_DESCRIPTION: SPR Biacore T200, mAb capture, 37 C
METRIC_NAME: kon
The reply must contain the numeric value and, after it, the unit.

H4H8046P (antibody, human IgG4, V domains shown, human IgG4 Fc (H4H prefix)) VH: QVQLVQSRDEVKKPGASVKVSCKASGYTFTTYGISWVRQAPGQGLEWMGWINTYNGDTNYAQKVQDRVIMTTDTSTSTAYMELRSLRSDDTAVYFCAGARPLGGRRAFDIWGQGTMVTVSS VL: DIQMTQSPSSLSASVGDRVTITCRASQGISHYLAWYQQKPGKVPKLLIYAASTLQSGVPSRFSGSGSGTDFTLTISSLQPEDVATYYCQKYNSVPWTFGQGTKVEIK: 718000 M⁻¹ s⁻¹

Continue with the next binder.
[in] State its kon: H4H8087P (antibody, human IgG4, V domains shown, human IgG4 Fc (H4H prefix)) VH: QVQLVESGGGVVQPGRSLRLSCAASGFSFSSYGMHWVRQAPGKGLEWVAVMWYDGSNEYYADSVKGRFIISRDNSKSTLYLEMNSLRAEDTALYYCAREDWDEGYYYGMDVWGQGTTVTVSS VL: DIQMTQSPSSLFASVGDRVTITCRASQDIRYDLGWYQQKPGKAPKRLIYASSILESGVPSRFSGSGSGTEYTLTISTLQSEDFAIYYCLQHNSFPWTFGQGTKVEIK
[out] 1.27e+06 M⁻¹ s⁻¹
